- System: Aspergillus flavus
- PROTOCOL DESCRIPTION: Antifungal activity against Aspergillus flavus ATCC 9170
- Type: functional
MEASUREMENT TYPE: MFC (µg/mL)
Lab book: enter the figure in µg/mL, no units written.

In the examples that follow, each entry is paired with its recorded MFC.
Prompt line: Which MFC is listed for O=C1C(Cl)=C(Cl)C(=O)N1CCCCc1ccccc1 ?
Response line: 31.2

Prompt line: Which MFC is listed for CN1C(=O)C=CC1=O ?
Response line: 31.2

Prompt line: Which MFC is listed for Cc1ccccc1N1C(=O)C=CC1=O ?
Response line: 62.5

Prompt line: Which MFC is listed for O=C1C=CC(=O)N1c1ccccc1 ?
Response line: 125

Prompt line: Which MFC is listed for COc1ccc(N2C(=O)C=CC2=O)c(OC)c1 ?
Response line: 125

Prompt line: Which MFC is listed for CCCN1C(=O)C=CC1=O ?
Response line: 15.6

Prompt line: Which MFC is listed for O=C1C=CC(=O)N1Cc1ccccc1 ?
Response line: 125

Prompt line: Which MFC is listed for CC1=CC(=O)N(CCCc2ccccc2)C1=O ?
Response line: 31.2

Prompt line: Which MFC is listed for CC(C)(C)c1ccccc1N1C(=O)C=CC1=O ?
Response line: 62.5

Prompt line: Which MFC is listed for C[C@@H]1[C@H](O)[C@@H](C)/C=C/C=C/C=C/C=C/C=C/C=C/C=C/[C@H](O[C@@H]2O[C@H](C)[C@@H](O)[C@H](N)[C@@H]2O)C[C@@H]2O[C@](O)(C[C@@H](O)C[C@@H](O)[C@H](O)CC[C@@H](O)C[C@@H](O)CC(=O)O[C@H]1C)C[C@H](O)[C@H]2C(=O)O [AMPHOTERICIN B] ?
Response line: 1.95

New cases:
Prompt line: Which MFC is listed for CC1=CC(=O)N(CCc2ccccc2)C1=O ?
Response line: 250

Prompt line: Which MFC is listed for O=C1C(Cl)=C(Cl)C(=O)N1CCc1ccccc1 ?
Response line: 15.6

Prompt line: Which MFC is listed for O=C1C=CC(=O)N1c1ccc(Br)cc1 ?
Response line: 62.5

Prompt line: Which MFC is listed for O=C1C(Cl)=C(Cl)C(=O)N1Cc1ccccc1 ?
Response line: 31.2

Prompt line: Which MFC is listed for O=C1C=CC(=O)N1CCc1ccccc1 ?
Response line: 31.2

Prompt line: Which MFC is listed for Cc1ccc(N2C(=O)C=CC2=O)cc1 ?
Response line: 15.6
